# assayed target: human orexin type 2 receptor (hOX2R) (Homo sapiens (Human))
# protocol text: Measurement of orexin type 2 receptor agonist activity (Experimental Example 2-1, FLIPR TETRA, intracellular Ca2+)
# Format: cell-based
# test parameters: CHO dhfr- cells expressing hOX2R, FLIPR TETRA, Fluo-4AM
# Text: To obtain a cell clone stably expressing human orexin type 2 receptor, human orexin type 2 receptor cDNA was inserted into pcDNA3.1(+) plasmid vector (Invitrogen), and a plasmid DNA for expression of human orexin type 2 receptor (pcDNA3.1(+)/hOX2R) was cloned. The plasmid DNA was introduced into CHO-dhfr cell by an electroporation method, and human orexin type 2 receptor expressing clone cells were obtained by limiting dilution method by using G418 drug resistance as a selection marker. […]
metric: EC50 (nM)

Some compounds with recorded EC50:
compound	EC50 / nM
CCNC(=O)N1CCC[C@H](NS(C)(=O)=O)[C@@H]1CO[C@H]1CC[C@@H](c2cnn(C)c2)CC1 (relative stereo) [Example 137]	240
CS(=O)(=O)N[C@H]1CCCN(C(=O)[C@@H]2CCOC2)[C@H]1CO[C@H]1CC[C@@H](c2ccccc2)CC1 [Example 150]	30
CS(=O)(=O)N[C@H]1CCCN(C(=O)OC2CC2)[C@H]1COC1CCN(c2ncccn2)CC1 (relative stereo) [Example 287]	150
CCNC(=O)N1CCC[C@H](NS(C)(=O)=O)[C@@H]1CO[C@H]1CC[C@@H](c2ccc(F)c(F)c2)CC1 (relative stereo) [Example 144]	1
COc1cccc([C@H]2CC[C@@H](OC[C@H]3[C@@H](NS(C)(=O)=O)CCCN3C(=O)C3CC3)CC2)c1 [Example 304]	23
CS(=O)(=O)N[C@H]1CCCN(C(=O)C2CC2)[C@H]1COC1CCC(F)(c2cc(F)cc(F)c2)CC1 (relative stereo) [Example 327]	2600
CS(=O)(=O)N[C@H]1CCCN(C(=O)CC2CC2)[C@H]1CO[C@H]1C[C@@H](c2ccccc2)C1 (relative stereo) [Example 308]	590
CC(=O)C(=O)N1CCC[C@H](NS(C)(=O)=O)[C@@H]1CO[C@H]1CC[C@@H](c2ccccc2)CC1 (relative stereo) [Example 177]	190
CS(=O)(=O)N[C@H]1CCCN(C(=O)CC2CC2)[C@H]1COC1CCN(c2ccccc2F)CC1 (relative stereo) [Example 226]	2200
C[C@H](O)C(=O)N1CCC[C@H](NS(C)(=O)=O)[C@@H]1CO[C@H]1CC[C@@H](c2ccccc2)CC1 [Example 188]	23

P. CCNC(=O)N1CCC[C@H](NS(C)(=O)=O)[C@@H]1CO[C@H]1CC[C@@H](c2ccccc2C#N)CC1 (relative stereo) [Example 263]
Q. CC(=O)N1CCC[C@H](NS(C)(=O)=O)[C@@H]1CO[C@H]1CC[C@@H](c2ccccc2OC(F)(F)F)CC1 (relative stereo) [Example 293]
Returns: the argument ( P or Q ) having the larger EC50. Write the label of whichever entry you select. Q

----------
# assayed target: human orexin type 2 receptor (hOX2R) (Homo sapiens (Human), UniProt O43614)
# Sequence (O43614 whole entry): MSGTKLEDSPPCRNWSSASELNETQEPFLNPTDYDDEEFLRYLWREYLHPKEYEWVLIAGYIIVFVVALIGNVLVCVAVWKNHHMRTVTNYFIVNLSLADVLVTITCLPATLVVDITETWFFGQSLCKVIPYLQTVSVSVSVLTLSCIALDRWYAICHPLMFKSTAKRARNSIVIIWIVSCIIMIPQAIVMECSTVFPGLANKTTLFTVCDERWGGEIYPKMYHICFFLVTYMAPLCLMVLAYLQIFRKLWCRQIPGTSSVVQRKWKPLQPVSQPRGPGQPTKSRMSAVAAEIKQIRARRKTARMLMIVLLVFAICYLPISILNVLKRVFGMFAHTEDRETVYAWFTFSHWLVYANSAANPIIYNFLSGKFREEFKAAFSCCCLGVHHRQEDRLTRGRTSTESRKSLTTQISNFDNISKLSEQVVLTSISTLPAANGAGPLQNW
# protocol text: Measurement of orexin type 2 receptor agonist activity (Experimental Example 2-1, FLIPR TETRA, intracellular Ca2+)
# Format: cell-based
# test parameters: CHO dhfr- cells expressing hOX2R, FLIPR TETRA, Fluo-4AM
pEC50: −log10 of the molar value.
metric: pEC50

compound	metric	recorded value
CCNC(=O)N1CCC[C@H](NS(C)(=O)=O)[C@@H]1COC1CCN(c2ccccc2)CC1 (relative stereo) [Example 123]	pEC50	6.41
CC(=O)N1CCC[C@H](NS(C)(=O)=O)[C@@H]1CO[C@H]1CC[C@@H](c2ccccc2F)CC1 [Example 240]	pEC50	7.62
CCCC(=O)N1CCC[C@H](NS(C)(=O)=O)[C@@H]1COC1CCN(c2ccccc2F)CC1 (relative stereo) [Example 227]	pEC50	5.62
CS(=O)(=O)N[C@H]1CCCN(C(=O)C2CC2)[C@H]1CO[C@H]1CC[C@@H](c2c(F)cccc2F)CC1 [Example 213]	pEC50	9.36
CCC(=O)N1CCC[C@H](NS(C)(=O)=O)[C@@H]1COC1CCN(c2ccccc2F)CC1 (relative stereo) [Example 219]	pEC50	5.52
CS(=O)(=O)N[C@H]1CCCN[C@H]1COC1CCC(F)(c2cc(F)cc(F)c2)CC1 (relative stereo) [Example 325]	pEC50	5.30
CC(=O)N1CCC[C@H](NS(C)(=O)=O)[C@@H]1CO[C@H]1CC[C@@H](C)CC1 (relative stereo) [Example 128]	pEC50	5.62
CS(=O)(=O)N[C@H]1CCCN(C(=O)CC#N)[C@H]1CO[C@H]1CC[C@@H](c2ccccc2)CC1 [Example 180]	pEC50	7.77

A. CS(=O)(=O)N[C@H]1CCCN(C(=O)C2(C#N)CC2)[C@H]1CO[C@H]1CC[C@@H](c2ccccc2)CC1 [Example 187]
B. CC(=O)N1CCC[C@H](NS(C)(=O)=O)[C@@H]1CO[C@H]1CC[C@@H](c2ccc(F)cc2F)CC1 (relative stereo) [Example 145]
C. CS(=O)(=O)N[C@H]1CCCN(C(=O)C2CC2)[C@H]1COC1CCN(c2ncc(F)cn2)CC1 (relative stereo) [Example 202]
D. CCNC(=O)N1CCC[C@H](NS(C)(=O)=O)[C@@H]1CO[C@H]1C[C@@H](c2ccc(C)cc2)C1 (relative stereo) [Example 192]
Order the records, beginning with the lowest pEC50 and ending with the highest. # list labels per requested ordering B, A, D, C
(B: 6.09, A: 6.43, D: 6.82, C: 7.72)

P. CC(=O)N1CCC[C@H](NS(C)(=O)=O)[C@@H]1CO[C@H]1CC[C@@H](c2cccc(C(F)(F)F)c2)CC1 (relative stereo) [Example 204]
Q. CCS(=O)(=O)N[C@H]1CCCN(C(=O)OC)[C@H]1CO[C@H]1CC[C@@H](c2ccccc2)CC1 (relative stereo) [Example 301]
R. CCNC(=O)N1CCC[C@H](NS(C)(=O)=O)[C@@H]1CO[C@H]1CO[C@@H](c2ccccc2)OC1 (relative stereo) [Example 140]
List items by pEC50 in falling order. Enter labels, ranked according to the request. Q, R, P
(Q: 7.68, R: 6.41, P: 6.15)

1. CS(=O)(=O)N[C@H]1CCCN(C(=O)C2CCC2)[C@H]1COC1CCN(c2ccccc2F)CC1 (relative stereo) [Example 223]
2. CS(=O)(=O)N[C@H]1CCCN(C(=O)CO)[C@H]1CO[C@H]1CC[C@@H](c2c(F)ccc(F)c2F)CC1 [Example 340]
// which entry has the larger pEC50 value, 1 or 2 ? Field: selected label. Fill in the label of the entry you choose. 2
(2: 8.60, 1: 5.96)

----------
# assayed target: human orexin type 2 receptor (hOX2R) (Homo sapiens (Human))
# protocol text: Measurement of orexin type 2 receptor agonist activity (Experimental Example 2-1, FLIPR TETRA, intracellular Ca2+)
# Assay type: cell-based
# test parameters: value at 30 uM concentration; orexin B as full agonist = 100%; CHO dhfr- cells expressing hOX2R
metric: Emax at 30 µM (%)

molecule	Emax at 30 µM [%]
CC(=O)CCC(=O)N1CCC[C@H](NS(C)(=O)=O)[C@@H]1CO[C@H]1CC[C@@H](C(C)C)CC1 (relative stereo)	88
CC(=O)N1CCC[C@H](NS(C)(=O)=O)[C@@H]1CO[C@H]1CC[C@@H](c2cccc(F)c2F)CC1	102
CC(C)[C@H]1CC[C@@H](OC[C@H]2[C@@H](NS(C)(=O)=O)CCCN2S(=O)(=O)c2cccnc2)CC1 (relative stereo)	87
CC(C)[C@H]1CC[C@@H](OC[C@H]2[C@@H](NS(C)(=O)=O)CCCN2C(=O)C2CC(O)C2)CC1 (some centres unmarked)	92
CCNC(=O)N1CCC[C@H](NS(C)(=O)=O)[C@@H]1CO[C@H]1CC[C@@H](c2ccccc2F)CC1 (relative stereo)	91
COC(=O)CCC(=O)N1CCC[C@H](NS(C)(=O)=O)[C@@H]1CO[C@H]1CC[C@@H](C(C)C)CC1 (relative stereo)	97
CC(=O)N1CCC[C@H](NS(C)(=O)=O)[C@@H]1CO[C@H]1CC[C@@H](c2c(F)cccc2F)CC1	105
CS(=O)(=O)N[C@H]1CCCN[C@H]1CO[C@H]1CC[C@@H](c2c(F)ccc(F)c2F)CC1	108
CC(C)[C@H]1CC[C@@H](OC[C@H]2[C@@H](NS(C)(=O)=O)CCCN2C(=O)C(C)(C)C)CC1 (relative stereo)	96
CC(=O)N1CCC[C@H](NS(=O)(=O)N(C)C)[C@@H]1CO[C@H]1CC[C@@H](C(C)C)CC1 (relative stereo)	91
COC(=O)N1CCC[C@H](NS(C)(=O)=O)[C@@H]1CO[C@H]1CC[C@@H](c2cc(F)ccc2F)CC1	114
CS(=O)(=O)N[C@H]1CCCN[C@H]1CO[C@H]1CC[C@@H](c2cc(F)ccc2F)CC1	113
CC(=O)N1CCC[C@H](NS(C)(=O)=O)[C@@H]1CO[C@H]1C[C@@H](c2ccccc2)C1 (relative stereo)	79
CC(C)[C@H]1CC[C@@H](OC[C@H]2[C@@H](NS(C)(=O)=O)CCCN2S(=O)(=O)c2cnn(C)c2)CC1 (relative stereo)	93
CCCS(=O)(=O)N[C@H]1CCCN(C(C)=O)[C@H]1CO[C@H]1CC[C@@H](C(C)C)CC1 (relative stereo)	91
[2H]C1C([2H])[C@]([2H])(C(C)C)C([2H])C([2H])[C@]1([2H])OC[C@H]1[C@@H](NS(C)(=O)=O)CCCN1C(C)=O (some centres unmarked)	98
CS(=O)(=O)N[C@H]1CCCN(C(=O)CO)[C@H]1CO[C@H]1CC[C@@H](c2cccc(F)c2F)CC1	94
CC(C)[C@H]1CC[C@@H](OC[C@H]2[C@@H](NS(C)(=O)=O)CCCN2C(=O)NCCO)CC1 (relative stereo)	108
CC(C)[C@H]1CC[C@@H](OC[C@H]2[C@@H](NS(C)(=O)=O)CCCN2C(=O)COc2ccccc2)CC1 (relative stereo)	96
CC(C)NC(=O)N1CCC[C@H](NS(C)(=O)=O)[C@@H]1CO[C@H]1CC[C@@H](C(C)C)CC1 (relative stereo)	115
CS(=O)(=O)N[C@H]1CCCN(C(=O)C2CC2)[C@H]1CO[C@H]1CC[C@@H](c2ccccc2)CC1	95
CC(C)[C@H]1CC[C@@H](OC[C@H]2[C@@H](NS(C)(=O)=O)CCCN2C(=O)Cn2cnccc2=O)CC1 (relative stereo)	84
CC(C)[C@H]1CC[C@@H](OC[C@H]2[C@@H](NS(C)(=O)=O)CCCN2C(=O)CCc2ccccc2)CC1 (relative stereo)	88
CS(=O)(=O)N[C@H]1CCCN(C(=O)C2CC2)[C@H]1CO[C@H]1CC[C@@H](c2cccc(F)c2)CC1	99
CS(=O)(=O)N[C@H]1CCCN[C@H]1CO[C@H]1CC[C@@H](c2ccccc2F)CC1 (relative stereo)	97
CC(C)[C@H]1CC[C@@H](OC[C@H]2[C@@H](NS(C)(=O)=O)CCCN2S(=O)(=O)C2CC2)CC1 (relative stereo)	93
